value-kind: melting point

INSERT INTO results (molecule, assay_value) VALUES
  ('CC(C)(C)C1NCc2ccccc2C1c1ccccc1 (stereo not given)', '79 to 81 °C'),
  ('CCOCCOc1nc(NC(C)=O)nc2ccc(Cl)nc12', '185 °C'),
  ('CC(=O)Oc1cc(OCCF)ccc1C(=O)O', '126 to 127 °C'),
  ('CCCN(CCCCc1c[nH]c2ccc(F)cc12)C1COc2c(F)ccc(C(N)=O)c2C1 (stereo not given)', '115 °C'),
  ('COC(=O)c1cccc(OS(=O)(=O)C(F)(F)F)c1O', '91.8 to 92.3 °C'),
  ('CCCn1c(=O)c2[nH]cnc2n(CCC)c1=O', '201 to 205 °C'),
  ('COc1ccc(-c2cc(C(F)(F)F)ccc2/C=C/C(=O)Nc2ccc3[nH]ccc3c2)cn1', '219 to 221 °C'),
  ('CCC(COC)Nc1nc(C)nc(N2CCc3cc(OC)cc(Cl)c32)c1C#N (stereo not given)', '182 to 183 °C'),
  ('COCCc1nc2c(N)nc3ccccc3c2n1CCCNS(C)(=O)=O', '193 to 194 °C'),
  ('O=C(O)COc1cccc2c1OCc1sc(SCC(c3ccccc3)c3ccccc3)nc1-2', '182 to 184 °C');

Just for reference, a melting point compilation (Tetko et al.; mined from patent text by program, amines drawn as free bases though some values may be those of a salt) is where these values come from.
